pIC50 values for the compounds below.
Target or system: NR2B containing NMDA receptors (Rattus norvegicus, UniProt P35439+Q00960)
Construct: primary neocortical cell cultures derived from 17 day old Charles River rat embryos; endogenous in cells; host or cells: primary rat embryonic (E17) neocortical cell culture, 3-7 days in vitro
Sequence (Q00960 27-1482, other chains not shown): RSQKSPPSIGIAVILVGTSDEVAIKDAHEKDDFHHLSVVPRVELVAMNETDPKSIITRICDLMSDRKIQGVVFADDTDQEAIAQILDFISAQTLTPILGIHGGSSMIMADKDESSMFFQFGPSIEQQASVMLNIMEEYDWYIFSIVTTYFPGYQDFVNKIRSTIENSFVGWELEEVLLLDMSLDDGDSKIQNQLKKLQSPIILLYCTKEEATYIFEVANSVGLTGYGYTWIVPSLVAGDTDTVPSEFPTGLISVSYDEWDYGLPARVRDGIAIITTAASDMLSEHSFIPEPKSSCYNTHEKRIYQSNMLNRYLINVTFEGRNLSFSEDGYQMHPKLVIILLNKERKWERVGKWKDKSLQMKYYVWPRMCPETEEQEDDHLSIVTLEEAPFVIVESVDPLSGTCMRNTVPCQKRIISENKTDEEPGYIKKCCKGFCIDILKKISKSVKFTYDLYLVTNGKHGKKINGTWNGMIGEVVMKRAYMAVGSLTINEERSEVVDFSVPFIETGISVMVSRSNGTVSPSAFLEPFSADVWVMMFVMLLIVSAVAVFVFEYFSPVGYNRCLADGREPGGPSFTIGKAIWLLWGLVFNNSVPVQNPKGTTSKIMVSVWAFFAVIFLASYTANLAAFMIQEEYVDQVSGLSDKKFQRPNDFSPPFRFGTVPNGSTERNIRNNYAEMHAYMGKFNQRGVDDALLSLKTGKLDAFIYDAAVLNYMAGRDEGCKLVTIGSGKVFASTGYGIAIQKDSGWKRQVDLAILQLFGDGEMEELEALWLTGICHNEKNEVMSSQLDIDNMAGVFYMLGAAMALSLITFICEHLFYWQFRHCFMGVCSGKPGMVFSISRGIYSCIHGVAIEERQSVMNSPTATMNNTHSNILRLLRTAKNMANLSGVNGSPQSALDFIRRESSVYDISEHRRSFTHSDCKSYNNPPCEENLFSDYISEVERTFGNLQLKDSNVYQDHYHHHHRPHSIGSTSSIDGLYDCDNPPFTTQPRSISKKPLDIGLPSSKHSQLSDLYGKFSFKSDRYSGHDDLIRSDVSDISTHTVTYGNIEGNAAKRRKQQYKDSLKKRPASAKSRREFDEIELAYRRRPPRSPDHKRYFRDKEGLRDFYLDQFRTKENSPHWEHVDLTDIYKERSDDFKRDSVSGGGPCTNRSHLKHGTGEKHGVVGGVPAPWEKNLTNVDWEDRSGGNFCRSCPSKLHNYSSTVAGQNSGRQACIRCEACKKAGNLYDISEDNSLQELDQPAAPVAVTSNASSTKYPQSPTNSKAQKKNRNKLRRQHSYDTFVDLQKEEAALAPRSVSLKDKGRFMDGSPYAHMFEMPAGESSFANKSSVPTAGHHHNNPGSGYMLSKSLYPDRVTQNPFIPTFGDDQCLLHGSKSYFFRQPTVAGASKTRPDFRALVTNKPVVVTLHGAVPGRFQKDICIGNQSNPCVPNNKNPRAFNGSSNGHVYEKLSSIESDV
Measurement notes: NMDA antagonist potency by fluorimetric intracellular calcium measurement in rat cortical cell culture
Format: cell-based
Assay setup: fluorimetric method, 40 μM NMDA; read-out: Rat cortical cells (NR2B) appr. IC50
pIC50: −log10 of the molar value.

> print(dat)
                                   molecule                          target.or.system  result.value
1  O=C(c1nc2ccc(O)cc2[nH]1)N1CCC(=Cc2ccccc2)CC1  NR2B containing NMDA receptors (Rattus norvegicus, UniProt P35439+Q00960)        > 7.30
2  O=C(c1cc2ccc(O)cc2[nH]1)N1CCC(=Cc2ccccc2)CC1  NR2B containing NMDA receptors (Rattus norvegicus, UniProt P35439+Q00960)  6.30 to 7.30
3  Cc1ccc(C=C2CCN(C(=O)c3nc4ccc(O)cc4[nH]3)CC2)cc1  NR2B containing NMDA receptors (Rattus norvegicus, UniProt P35439+Q00960)        > 7.30
4  O=C(c1nc2ccc(O)cc2[nH]1)N1CCC(=Cc2ccc(Cl)cc2)CC1  NR2B containing NMDA receptors (Rattus norvegicus, UniProt P35439+Q00960)        > 7.30
5  O=C(c1nc2ccc(O)cc2[nH]1)N1CCC(=Cc2ccc(F)cc2)CC1  NR2B containing NMDA receptors (Rattus norvegicus, UniProt P35439+Q00960)        > 7.30

Below: the item to evaluate.
query: What is its pIC50 for NR2B containing NMDA receptors (Rattus norvegicus, UniProt P35439+Q00960)? Entry: `COc1ccc(C=C2CCN(C(=O)c3nc4ccc(O)cc4[nH]3)CC2)cc1`
result: > 7.30
